Data origin: the supplement of paper PMC10567573

B1: PLAGL1 (parent)
chain: CKDFLCQFCAQRFGRKDHLTRHTK

# Variants of: B1
# protocol_text: protein stability index of a GFP-peptide fusion (GPS, HEK-293T) (PSI 1-6); higher = more stable;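 also: lentivirally expressed fusions sorted by FACS into six bins by GFP to DsRed ratio, PSI derived from sequencing read proportions per bin multiplied by bin number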
# reported_conditions: c terminus: a fixed tail appended
Where protein stability index equals or exceeds 2, the correct label is YES; where it does not, the label is NO.

Asked: Record "L19G" ; criterion: protein stability index no lower than 2. Met?
Given back: YES

Asked: // inclusive: protein stability index at least 2? input: "K2P"
Given back: YES

Asked: Could you verify whether the entry "K16E" shows protein stability index of no less than 2?
Given back: NO

Asked: Has "D3W" a recorded protein stability index greater than or equal to 2?
Given back: NO

Asked: protein stability index >= 2 for "F13W" ?
Given back: YES

Asked: Record "C9K" ; criterion: protein stability index no lower than 2. Met?
Given back: YES

Asked: Does the variant "F13K" have recorded protein stability index that is 2 or more?
Given back: YES

Asked: Does the reported protein stability index for "K24F" fall at or above the 2 mark?
Given back: YES

Asked: Hi, just wondering whether "D17V" shows protein stability index of 2 or higher.
Given back: NO

Asked: Answer whether protein stability index of "D3Y" is greater than or equal to 2.
Given back: YES

Asked: Does "H18R" have a reported protein stability index of at least 2?
Given back: YES

Asked: Given the entry "D3S" , answer whether its protein stability index meets or surpasses 2.
Given back: NO

Asked: Is protein stability index for "F8V" at or above 2?
Given back: YES

Asked: Threshold query (protein stability index >= 2) on "Q11L"
Given back: YES

Asked: Has "L19H" a recorded protein stability index greater than or equal to 2?
Given back: YES

Asked: Check the entry "C1M" : does protein stability index equal or exceed 2?
Given back: NO

Asked: Given the entry "C6I" , answer whether its protein stability index meets or surpasses 2.
Given back: NO

Asked: Check the entry "C1D" : does protein stability index equal or exceed 2?
Given back: YES

Asked: Does the reported protein stability index for "C1T" fall at or above the 2 mark?
Given back: NO

Asked: Determine whether measured protein stability index meets or exceeds 2 for "Q11Y"
Given back: NO

Asked: Please tell me: is the variant "D3N" at or over 2 in terms of protein stability index?
Given back: NO

Asked: Entry "R21Q" : is its protein stability index no less than 2?
Given back: YES

Asked: Hi team, for "C1L" , is the recorded protein stability index at or above 2?
Given back: YES

Asked: Quick check, protein stability index >= 2? "H18P"
Given back: NO

Asked: In plain terms: is recorded protein stability index at least 2 for "F8H" ?
Given back: YES

Asked: API: above_or_equal(metric=protein stability index, cutoff=2) for item "C9D"
Given back: YES

Asked: Answer whether protein stability index of "C6P" is greater than or equal to 2.
Given back: YES

Asked: Reported protein stability index at or above 2? "F13M"
Given back: YES

Asked: Assess whether reported protein stability index for "C6K" sits at 2 or higher.
Given back: NO

Asked: Could you tell me if the measured protein stability index of "T20R" reaches 2 or more?
Given back: NO

Asked: Determine whether measured protein stability index meets or exceeds 2 for "Q7M"
Given back: YES

Asked: Reported protein stability index at or above 2? "R12H"
Given back: YES

Asked: Given "K16A" , state whether its protein stability index is at least 2.
Given back: YES

Asked: # bool: protein stability index of "K24L" >= 2
Given back: NO

Asked: I'd appreciate it if you could say whether "H18K" has protein stability index at least equal to 2.
Given back: YES

Asked: Is protein stability index for "L5I" at or above 2?
Given back: NO

Asked: Does the variant "Q7G" have recorded protein stability index that is 2 or more?
Given back: YES

Asked: # bool: protein stability index of "K2Q" >= 2
Given back: YES

Asked: Does the variant "C6N" have recorded protein stability index that is 2 or more?
Given back: NO

Asked: Is protein stability index for "K16D" at or above 2?
Given back: YES

Asked: Does protein stability index meet or surpass 2 for "K2C" ?
Given back: YES

Asked: Item "K16P" with protein stability index of 2 or above?
Given back: YES

Asked: In plain terms: is recorded protein stability index at least 2 for "Q7W" ?
Given back: YES

Asked: // inclusive: protein stability index at least 2? input: "C9G"
Given back: YES

Asked: Answer whether protein stability index of "F8I" is greater than or equal to 2.
Given back: NO

Asked: Exam item: decide whether the reported protein stability index for "K24D" is at least 2.
Given back: NO

Asked: Reported protein stability index reaches at least 2 for "R15L" ?
Given back: YES

Asked: Is it the case that "C9F" has protein stability index reaching or exceeding 2?
Given back: NO

Asked: Reported protein stability index at or above 2? "F13H"
Given back: YES

Asked: Exam item: decide whether the reported protein stability index for "L5M" is at least 2.
Given back: NO

Asked: Kindly determine if protein stability index recorded for "D17H" is above or exactly 2.
Given back: NO

Asked: Could you verify whether the entry "T20D" shows protein stability index of no less than 2?
Given back: NO

Asked: API: above_or_equal(metric=protein stability index, cutoff=2) for item "R15Q"
Given back: NO

Asked: Does "R12C" have a reported protein stability index of at least 2?
Given back: YES

Asked: Quick check: does "F4H" have protein stability index greater than or equal to 2?
Given back: NO

Asked: Determine whether measured protein stability index meets or exceeds 2 for "Q11S"
Given back: YES

Asked: Please check the record "D3E" and state if its protein stability index is at or above 2.
Given back: NO

Asked: Can "R12S" be said to have protein stability index at or above 2?
Given back: YES

Asked: Could you tell me if the measured protein stability index of "T20P" reaches 2 or more?
Given back: NO

Asked: Determine whether measured protein stability index meets or exceeds 2 for "K16N"
Given back: NO

Asked: Check if protein stability index >= 2 (inclusive). Item: "H22Q"
Given back: NO

Asked: Say whether "C9I" shows protein stability index of 2 or more.
Given back: YES
